Where these numbers come from: paper PMC9482650

# Assay system: T1, MPDZ_10, O75970
# T1 sequence (O75970 1624-1722, limits assumed, looked up): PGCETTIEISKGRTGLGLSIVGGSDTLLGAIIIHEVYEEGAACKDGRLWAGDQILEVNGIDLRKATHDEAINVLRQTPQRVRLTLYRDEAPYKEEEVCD
# Method summary: holdup assay
# Design: key: below the threshold = too weak to quantify, mostly under pKd 3.1 to 4
# Applied conditions: plain residues with an end cap or a label only (N-terminal biotin on a linker: ado-ado)
Measurement kind: pKd
Output spec: single numeric token, no unit.

| Binder | pKd |
| --- | --- |
| VLYPREGTEV [FOXI1, Q12951] | 3.49 |

Query string: Dear colleague, please send me the reported pKd for GTGYDRKDYV [CLDN3, O15551] when you can.
Result string: 3.51

Query string: Dear colleague, please send me the reported pKd for RQKEVRESKC [SCN8A, Q9UQD0] when you can.
Result string: 3.8

Query string: Dear colleague, please send me the reported pKd for NNNVVKVDSV [MTNR1A, P48039] when you can.
Result string: 3.68

Query string: Dear colleague, please send me the reported pKd for NVYGIESVKI [GRIA2, P42262] when you can.
Result string: 3.57
